Here, each record is paired with measured FACS-Seq fitted mean (log10) data.
B1: library; a variant is named by its letters at N, in order (parent)
chain: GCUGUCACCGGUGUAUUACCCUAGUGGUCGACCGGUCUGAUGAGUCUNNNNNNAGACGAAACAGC

Variants of: B1
protocol_description: FACS-Seq fitted mean relative fluorescence mCherry/BFP without ligand (log10 relative fluorescence); ligand: hypoxanthine (xanthine aptamer); higher = higher reporter protein expression
study_conditions: HEK293T, ligand present: no
result_type: FACS-Seq fitted mean (log10)

[[record]]
mutant_designation = "GUGCAU"
experimental_value = -0.413

[[record]]
mutant_designation = "CGAUAG"
experimental_value = 0.613

[[record]]
mutant_designation = "AUAAUU"
experimental_value = 0.751

[[record]]
mutant_designation = "UAACUG"
experimental_value = 0.142

[[record]]
mutant_designation = "UAGAAG"
experimental_value = 0.421

[[record]]
mutant_designation = "UAAGGU"
experimental_value = 0.356

[[record]]
mutant_designation = "CCGAAA"
experimental_value = 0.595

[[record]]
mutant_designation = "UAUGGC"
experimental_value = -0.121

[[record]]
mutant_designation = "AAGUUA"
experimental_value = -0.098

[[record]]
mutant_designation = "GGAGCA"
experimental_value = 0.654

[[record]]
mutant_designation = "GAGUGU"
experimental_value = 0.458

[[record]]
mutant_designation = "AACGGG"
experimental_value = 0.0434

[[record]]
mutant_designation = "UAAUUA"
experimental_value = 0.737

[[record]]
mutant_designation = "UAGGAA"
experimental_value = 0.348

[[record]]
mutant_designation = "UGCCCA"
experimental_value = 0.234

[[record]]
mutant_designation = "GGUUUA"
experimental_value = 0.149

[[record]]
mutant_designation = "CAGAGA"
experimental_value = 0.378

[[record]]
mutant_designation = "AACCCG"
experimental_value = 0.577

[[record]]
mutant_designation = "ACGUGA"
experimental_value = -0.0934

[[record]]
mutant_designation = "UAUACA"
experimental_value = 0.641

[[record]]
mutant_designation = "GUAAAC"
experimental_value = 0.572

[[record]]
mutant_designation = "GCUAAC"
experimental_value = 0.101

[[record]]
mutant_designation = "CCACUG"
experimental_value = 0.339

[[record]]
mutant_designation = "UCGUGA"
experimental_value = 0.414

[[record]]
mutant_designation = "AUACAG"
experimental_value = 0.1

[[record]]
mutant_designation = "GGCAUG"
experimental_value = 0.213

[[record]]
mutant_designation = "AUCCUC"
experimental_value = -0.169

[[record]]
mutant_designation = "GUAUUG"
experimental_value = -0.148

[[record]]
mutant_designation = "AGAUGA"
experimental_value = 0.409

[[record]]
mutant_designation = "CUCGGG"
experimental_value = 0.547

[[record]]
mutant_designation = "UGUUAU"
experimental_value = -0.225

[[record]]
mutant_designation = "UACAGG"
experimental_value = 0.231

[[record]]
mutant_designation = "UUACGU"
experimental_value = 0.582

[[record]]
mutant_designation = "GAUGUU"
experimental_value = 0.33

[[record]]
mutant_designation = "AGUCAU"
experimental_value = 0.385

[[record]]
mutant_designation = "UUAAGG"
experimental_value = 0.505

[[record]]
mutant_designation = "AAGAUC"
experimental_value = 0.614

[[record]]
mutant_designation = "UAGUCA"
experimental_value = 0.551

[[record]]
mutant_designation = "UUGAGC"
experimental_value = 0.0741

[[record]]
mutant_designation = "GCGAUU"
experimental_value = -0.0877

[[record]]
mutant_designation = "CGGAAG"
experimental_value = 0.266

[[record]]
mutant_designation = "AUGGAG"
experimental_value = 0.0698

[[record]]
mutant_designation = "UCAUUU"
experimental_value = 0.631

[[record]]
mutant_designation = "AAAUUG"
experimental_value = 0.0713

[[record]]
mutant_designation = "GUAUCU"
experimental_value = 0.165

